Target entity: human ether-à-go-go-related gene (hERG) potassium channel (human);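 further: peak tail current of the secondary pulse compared with the same well before compound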
Assay name: primary screen, population patch clamp on CHO cells stably expressing hERG; higher = less effect of the substance
Out of some 310,000 compounds screened, about 14,000 (4.5%) showed an effect of 50% or more. The effect is printed as a negative number. The list comes from a sample in which strong results are over-represented; it also holds close analogues and randomly drawn compounds.
Value type: hERG current change (%, negative = inhibition) at 10uM
Please state the number and follow it with the unit.

Enquiry: Read off the recorded hERG current change (%, negative = inhibition) at 10uM for `COc1ccc(OCC(=O)N2CCC(n3nccc3NC(=O)C3CC3)CC2)cc1`
Return: 1.44%

Enquiry: For the compound `CCN1CCN(C(=S)Nc2ccc3nc4n(c(=O)c3c2)CCCCC4)CC1` , report hERG current change (%, negative = inhibition) at 10uM.
Return: 1.83%

Enquiry: Fill in reported hERG current change (%, negative = inhibition) at 10uM for this entry: `Cc1cccc(Nc2ccc(NCc3ccccc3)nn2)c1`
Return: -51.8%

Enquiry: Look up hERG current change (%, negative = inhibition) at 10uM of `COCCCNCCCCOc1cccc(Br)c1.O=C(O)C(=O)O` and report it.
Return: -19.3%

Enquiry: Consider the compound CCOC(=O)C1CCCN(C(=O)C(=O)Nc2ccc3nc4n(c(=O)c3c2)CCCCC4)C1 (stereo not drawn) . State its measured hERG current change (%, negative = inhibition) at 10uM.
Return: -1.21%

Enquiry: Give the reported hERG current change (%, negative = inhibition) at 10uM for this compound. OC(COc1cc(Cl)c(Cl)cc1Cl)CN1CCN(c2ncccn2)CC1 (stereo not drawn)
Return: -11.3%

Enquiry: Please supply the value of reported hERG current change (%, negative = inhibition) at 10uM for the item Cc1cccc(CC2CC(=O)N(CCc3ccc4c(c3)OCO4)C2=O)c1 (stereo not drawn)
Return: 34.2%

Enquiry: For the compound Cc1cc(C)cc(OCC(=O)NCC2CCCO2)c1 (stereo not drawn) , give its measured hERG current change (%, negative = inhibition) at 10uM value.
Return: -11.8%

Enquiry: Entry CC1CCCC(C)N1CCCNC(=O)C(=O)Nc1ccc2nc3n(c(=O)c2c1)CCCCC3 (stereo not drawn) needs its hERG current change (%, negative = inhibition) at 10uM filled in; supply it.
Return: 16.8%

Enquiry: Please look at this compound and report its hERG current change (%, negative = inhibition) at 10uM: `O=S1(=O)CCN(Cc2ccccc2Cl)CC1`
Return: -11.1%

###

Overview of reported hERG current change (%, negative = inhibition) at 10uM across a group of compounds:
Target entity: human ether-à-go-go-related gene (hERG) potassium channel (human);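 further: peak tail current of the secondary pulse compared with the same well before compound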
Assay name: primary screen, population patch clamp on CHO cells stably expressing hERG; higher = less effect of the substance
Hit rate of the full screen: of about 310,000 compounds, about 14,000 (4.5%) showed an effect of 50% or more. Effects have a minus sign here. What follows is part of a selection rich in strong results, with near analogues and random picks from the rest.
Give just the number in %; leave the unit off.

Enquiry: Please supply the value of reported hERG current change (%, negative = inhibition) at 10uM for the item `COC(=O)c1ccc(/C=N/NS(=O)(=O)c2cc(C)ccc2C)cc1`
Return: -0.827

Enquiry: For the compound COc1cccc(NC(=O)C2C3C=CC(O3)C2C(=O)O)c1 (stereo not shown) , report hERG current change (%, negative = inhibition) at 10uM.
Return: 10.6

Enquiry: Tell me hERG current change (%, negative = inhibition) at 10uM reported for `Cc1nn(Cc2ccccc2Cl)c2sc(C(=O)NC(C)(C)C)cc12`
Return: 10.7

Enquiry: Give me measured hERG current change (%, negative = inhibition) at 10uM, please, for this compound: `O=C(Cc1ccc(Cl)c(Cl)c1)Nc1cccc2ncccc12`
Return: 20.2

Enquiry: Identify measured hERG current change (%, negative = inhibition) at 10uM corresponding to `O=C(Cc1ccccc1)NNC(=O)c1ccccc1C(=O)O`
Return: -5.66

Enquiry: Name the recorded hERG current change (%, negative = inhibition) at 10uM of the compound listed here: `Cc1ccc(-n2c(CSc3nc(C)cc(C)n3)nnc2SCC(=O)NCc2ccco2)cc1`
Return: -38.7

Enquiry: Name the recorded hERG current change (%, negative = inhibition) at 10uM of the compound listed here: COc1ccc(C(=O)C(C)OC(=O)c2nc3nccc(C)n3n2)cc1 (stereo not shown)
Return: 2.98

Enquiry: Annotate the compound `CSc1nc(N2CCOCC2)cc(N2CCOCC2)n1` with its measured hERG current change (%, negative = inhibition) at 10uM.
Return: 7.09

Enquiry: Dear colleague, please send me the reported hERG current change (%, negative = inhibition) at 10uM for `N/C(=N\c1nc2ccccc2o1)NC(=O)c1ccc(Cl)cc1` when you can.
Return: 35.6

Enquiry: Report hERG current change (%, negative = inhibition) at 10uM for `CC(=O)c1cccc(NC(=O)CCOc2ccccc2)c1`
Return: 6.88

###

Target entity: human ether-à-go-go-related gene (hERG) potassium channel (human, UniProt Q12809);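 further: peak tail current of the secondary pulse compared with the same well before compound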
Sequence (Q12809 whole entry, looked up): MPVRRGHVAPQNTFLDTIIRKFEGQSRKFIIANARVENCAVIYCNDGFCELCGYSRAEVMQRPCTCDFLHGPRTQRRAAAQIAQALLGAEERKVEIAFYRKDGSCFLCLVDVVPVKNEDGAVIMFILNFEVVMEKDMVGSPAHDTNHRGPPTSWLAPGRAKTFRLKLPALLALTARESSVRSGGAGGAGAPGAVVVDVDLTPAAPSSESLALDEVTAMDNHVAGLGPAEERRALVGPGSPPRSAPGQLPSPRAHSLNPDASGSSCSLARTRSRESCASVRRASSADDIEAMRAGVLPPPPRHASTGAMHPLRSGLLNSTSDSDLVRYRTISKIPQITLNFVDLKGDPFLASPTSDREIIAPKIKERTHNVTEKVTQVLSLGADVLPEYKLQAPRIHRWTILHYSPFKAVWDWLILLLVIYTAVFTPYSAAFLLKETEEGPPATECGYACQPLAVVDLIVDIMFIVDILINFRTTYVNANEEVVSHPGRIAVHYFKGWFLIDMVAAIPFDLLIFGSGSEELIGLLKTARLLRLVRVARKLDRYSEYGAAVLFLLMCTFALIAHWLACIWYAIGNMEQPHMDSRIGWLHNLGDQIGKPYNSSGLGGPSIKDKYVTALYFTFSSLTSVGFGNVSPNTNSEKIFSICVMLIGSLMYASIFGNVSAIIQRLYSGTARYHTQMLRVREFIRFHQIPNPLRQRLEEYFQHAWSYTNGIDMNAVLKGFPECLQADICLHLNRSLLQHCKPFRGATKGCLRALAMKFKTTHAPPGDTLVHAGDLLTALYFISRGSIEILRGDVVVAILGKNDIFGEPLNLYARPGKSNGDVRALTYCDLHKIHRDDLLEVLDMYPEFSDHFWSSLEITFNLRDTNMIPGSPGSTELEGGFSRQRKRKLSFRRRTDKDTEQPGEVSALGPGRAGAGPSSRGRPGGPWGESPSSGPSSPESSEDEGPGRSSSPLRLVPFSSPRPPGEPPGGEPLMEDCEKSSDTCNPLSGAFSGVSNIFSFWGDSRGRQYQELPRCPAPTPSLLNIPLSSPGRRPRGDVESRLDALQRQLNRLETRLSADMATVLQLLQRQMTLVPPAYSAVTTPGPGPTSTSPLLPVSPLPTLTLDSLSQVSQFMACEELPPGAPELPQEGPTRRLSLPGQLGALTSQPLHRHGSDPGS
Assay name: primary screen, population patch clamp on CHO cells stably expressing hERG; higher = less effect of the substance
The whole screen tested about 310,000 compounds, of which about 14,000 (4.5%) showed an effect of 50% or more. The effect is printed as a negative number. Many of the other results were omitted from the sample, so strong results are more common in it than they were.
Form field: hERG current change (%, negative = inhibition) at 10uM (one value per entry).
The figure you give is taken to be in %; do not add the unit.

Solved cases below.
Compound	Unit tag	Measured result
CCCCN(CCCC)C(=O)CN(C)S(=O)(=O)c1ccc2c(c1)n(C)c(=O)c(=O)n2C	%	-37
Cn1c(=O)[nH]c(=O)c2c1nc(Br)n2CC(O)COc1ccc(Cl)cc1 (centres unmarked)	%	-63.6
Cn1c(=O)[nH]c(=O)c2c1nc(Br)n2CC(O)COc1ccccc1 (centres unmarked)	%	-0.394

Enquiry: Item Cn1c(=O)[nH]c(=O)c2c1nc(N1CCCCC1)n2CC(O)COc1ccc([N+](=O)[O-])cc1 (centres unmarked) : provide hERG current change (%, negative = inhibition) at 10uM
Return: -69.8

Enquiry: // Input: Cc1ccc(OCC(O)Cn2c(N3CCCCC3)nc3c2c(=O)[nH]c(=O)n3C)cc1 (centres unmarked) . Output its hERG current change (%, negative = inhibition) at 10uM only.
Return: 9.46

###

Target entity: human ether-à-go-go-related gene (hERG) potassium channel (human);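 further: peak tail current of the secondary pulse compared with the same well before compound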
Assay name: primary screen, population patch clamp on CHO cells stably expressing hERG; higher = less effect of the substance
Experimental: Briefly, Chinese hamster ovary (CHO) cells stably expressing the hERG channel were dislodged from tissue culture flasks and dispensed into PPC plates. […] During the recording, background leak currents were estimated by a 100 ms step to -80 mV from an initial holding potential of -70 mV and subtracted from the subsequent current measurement. The campaign was conducted in two phases using slight differences in recording protocol. […]
Hit rate of the full screen: of about 310,000 compounds, about 14,000 (4.5%) showed an effect of 50% or more. Effects have a minus sign here. Many of the other results were omitted from the sample, so strong results are more common in it than they were.
Use Criterion met when the recorded hERG current change (%, negative = inhibition) at 10uM is no lower than -20%; use Criterion not met when it is lower.

These solved cases illustrate the format of a correct answer.
Molecule	Classification
O=C(c1ccc2ccccc2c1)N1CCN(c2ccc(C(F)(F)F)cn2)CC1	Criterion met
C=CCN(C(=O)CSc1nc2ccsc2c(=O)n1Cc1ccccn1)c1ccccc1	Criterion met
Cc1nc(NNC(=O)c2ccc(Cl)cc2Cl)cc(-c2ccccc2)n1	Criterion met
Cc1nc(NNC(=O)c2ccccc2)cc(-c2ccccc2)n1	Criterion met
Cc1nc(NNC(=O)c2ccc([N+](=O)[O-])cc2)cc(-c2ccccc2)n1	Criterion not met
Cc1nn(C)c(Oc2ccc(Cl)cc2)c1C(=O)O	Criterion met
O=C(/C=C/c1ccccc1)Nc1sc2c(c1C(=O)O)CCC2	Criterion met
O=C(c1ccc([N+](=O)[O-])s1)N1CCN(c2ccc(C(F)(F)F)cn2)CC1	Criterion not met
O=C(c1ccc2c(c1)OCO2)N1CCN(c2ccc(C(F)(F)F)cn2)CC1	Criterion not met
O=C(Nc1ccc2c(c1)OCO2)N1CCN(c2cccc(C(F)(F)F)c2)CC1	Criterion met

Enquiry: Tell me whether hERG current change (%, negative = inhibition) at 10uM is at least -20% here: `O=C(CN1CCN(c2ccc(C(F)(F)F)cn2)CC1)NCc1ccc2c(c1)OCO2`
Return: Criterion not met

Enquiry: Check if hERG current change (%, negative = inhibition) at 10uM >= -20% (inclusive). Item: `O=C(NCCS(=O)(=O)N1CCN(c2ccc(F)cc2)CC1)C12CC3CC(CC(C3)C1)C2`
Return: Criterion met

Enquiry: Given `O=C(c1ccc2c(c1)OCO2)N1CCN(c2cccc(C(F)(F)F)c2)CC1` , state whether its hERG current change (%, negative = inhibition) at 10uM is at least -20%.
Return: Criterion not met

Enquiry: Is it the case that `CCOc1ccc(S(=O)(=O)Nc2cccc(C(=O)N(C)Cc3cccc(OC)c3OC)c2)cc1` has hERG current change (%, negative = inhibition) at 10uM reaching or exceeding -20%?
Return: Criterion met

Enquiry: Reported hERG current change (%, negative = inhibition) at 10uM reaches at least -20% for `CCCCCCn1c(O)c(C=NCCN2CCCCC2)c(=O)[nH]c1=O` ?
Return: Criterion not met

Enquiry: Does the molecule O=C(Nc1ccc(Cl)cc1)NC1CCCC1Cc1ccco1 (centres unmarked) have recorded hERG current change (%, negative = inhibition) at 10uM that is -20% or more?
Return: Criterion met

Enquiry: Assess whether reported hERG current change (%, negative = inhibition) at 10uM for `Cc1ccc(C(=O)N2CCN(c3ccc(C(F)(F)F)cn3)CC2)cc1` sits at -20% or higher.
Return: Criterion met

Enquiry: Dear colleague, could you confirm whether CCC(C)NC(=O)C1CCCN(C(=O)NC2CCCCC2)C1 (centres unmarked) has hERG current change (%, negative = inhibition) at 10uM at or above -20%?
Return: Criterion met

Enquiry: Reported hERG current change (%, negative = inhibition) at 10uM at or above -20%? `O=C(c1ccc2c(c1)OCO2)N1CCN(c2ccccc2)CC1`
Return: Criterion met

Enquiry: Reported hERG current change (%, negative = inhibition) at 10uM at or above -20%? `O=S(=O)(c1ccc(Nc2ccc3c(c2)OCO3)nc1)N1CCOCC1`
Return: Criterion met
